TARGET: human PPAR α (Homo sapiens)
Construct: expressed in transfected cells; host or cells: HepG2 (ATCC HB-8065) or 293T cells (ATCC CRL-1573)
Sequence (Q07869 239-466 limits assumed): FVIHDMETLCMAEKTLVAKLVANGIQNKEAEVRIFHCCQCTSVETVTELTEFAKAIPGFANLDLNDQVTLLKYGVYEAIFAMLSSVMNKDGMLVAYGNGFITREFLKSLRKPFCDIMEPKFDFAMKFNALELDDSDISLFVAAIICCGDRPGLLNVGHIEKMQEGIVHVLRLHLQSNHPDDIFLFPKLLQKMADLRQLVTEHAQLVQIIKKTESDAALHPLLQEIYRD
MEASUREMENT PROTOCOL: Exogeneous PPAR α agonist assay (GAL4 DNA binding domain/PPAR α ligand binding domain, luciferase) in HepG2 cells
Format: cell-based
TEST CONDITIONS: 25 μM compound, 48 hours, luciferase activity increase relative to the control
MEASURE NAME: Activity at 25 μM Step 1 HepG2 cell
Number only, no unit.

Look at this molecule and give its reported Activity at 25 μM Step 1 HepG2 cell. Cc1oc(-c2ccc(C(F)(F)F)cc2)nc1CCOc1cccc(CN(CC(=O)O)S(=O)(=O)N(C)c2cccc(F)c2)c1
26

Look at this molecule and give its reported Activity at 25 μM Step 1 HepG2 cell. CCN(c1cccc(C)c1)S(=O)(=O)N(CC(=O)O)Cc1cccc(OCCc2nc(-c3ccc(C(F)(F)F)cc3)oc2C)c1
30

Look at this molecule and give its reported Activity at 25 μM Step 1 HepG2 cell. CCN(CC)S(=O)(=O)N(CC(=O)O)Cc1cccc(OCCc2nc(-c3ccc(C(F)(F)F)cc3)oc2C)c1
50

Look at this molecule and give its reported Activity at 25 μM Step 1 HepG2 cell. COc1ccc(N(C)S(=O)(=O)N(CC(=O)O)Cc2cccc(OCc3nc(-c4ccc(C(F)(F)F)cc4)oc3C)c2)cc1
49

Look at this molecule and give its reported Activity at 25 μM Step 1 HepG2 cell. C=CCN(C)S(=O)(=O)N(CC(=O)O)Cc1cccc(OCc2nc(-c3ccc(C(F)(F)F)cc3)oc2C)c1
52

Look at this molecule and give its reported Activity at 25 μM Step 1 HepG2 cell. Cc1ccc(-c2nc(COc3cccc(CN([C@H](C(=O)O)C(C)C)S(N)(=O)=O)c3)c(C)o2)cc1
25

Look at this molecule and give its reported Activity at 25 μM Step 1 HepG2 cell. Cc1oc(-c2ccc(C(F)(F)F)cc2)nc1COc1cccc(CN(CC(=O)O)S(=O)(=O)N(C)C(C)C)c1
31
